Reported endpoint: melting point

Use the examples below as a reference point.
{"Compound": "CN(C)c1cc(Cl)c(C=O)c(Cl)c1", "melting point": "169 to 171 °C"}
{"Compound": "CC(=O)Oc1ccccc1C(=O)NC(Oc1ccc2ccccc2c1)C(Cl)(Cl)Cl (stereo not given)", "melting point": "158 to 160 °C"}
{"Compound": "COC(=O)C(c1cc2c(cc1Cl)OCO2)c1cn(C)c2cc(Br)ccc12 (stereo not given)", "melting point": "183 to 185 °C"}
{"Compound": "CC(=O)c1cc2c(s1)S(=O)CCN(CCCCN1CCN(c3ncccn3)CC1)C2=O (stereo not given)", "melting point": "103 to 106 °C"}

Let us examine a further case.
Query block: Requested read-out: melting point. Entry: `CC(C)(C)OC(=O)N[C@@H](CCCCNC[C@H](O)CCl)C(=O)OC(C)(C)C`
Result block: 87 to 88 °C

* * *

Please provide measured melting point for the entries that follow.

Some solved cases for reference:
{"Molecule": "COC1(C)OC(=O)c2c(O)cccc21 (stereo unspecified)", "Reported result": "101 to 104 °C"}
{"Molecule": "COc1ccc(C)cc1NC(=O)Nc1ccc(N2CCN(C(=O)Nc3cc(OCCO)ccc3C)CC2)cc1", "Reported result": "121 to 124 °C"}
{"Molecule": "CCc1cc2c(cc1CC)C(=O)CCC2", "Reported result": "93 °C"}
{"Molecule": "O=S(=O)(N=CN1CCOCC1)c1cc(Br)cc(Br)c1", "Reported result": "195 to 197 °C"}
{"Molecule": "O=c1cc(N2CCCCC2)oc2c1ccc1ccccc12", "Reported result": "205 to 207 °C"}

Would you be so kind as to report melting point for each listed record?
1. COc1cc(C(=O)C#CCOCC=C(C)C)cc(OC)c1OC
2. Oc1ccc(CN2CCCCC2)c2cccnc12
3. c1ccc(CNCCOc2ccc3ccccc3c2)cc1
4. Cc1ccc(Nc2c(C)cc(Cl)cc2Cl)c(CC(=O)O)c1
5. Nc1ncccc1-c1nc2cc(C(F)(F)F)cnc2n1-c1ccc(CNC(=O)c2cccc(F)c2)cc1
6. COC(=O)Nc1nc(C)cc(OC)n1

Result block:
1: 32 °C; 2: 96 °C; 3: 94 °C; 4: 137 to 141 °C; 5: 230 to 231 °C; 6: 89 to 92.5 °C

* * *

Reported endpoint: melting point

Each of the following entries comes with a recorded value; kindly state melting point for each.
1. CC1(C)OC[C@H](CCOc2c(C(C)(C)C)cc(SC(C)(C)Sc3cc(C(C)(C)C)c(O)c(C(C)(C)C)c3)cc2C(C)(C)C)O1
2. CC(C)(C)OC(=O)N1CCn2c(c(C(N)=O)c(Cl)c2-c2ccccc2)C1

Result block:
1. 44 to 46 °C
2. 183 to 185 °C

List the reported melting point of each compound below.
1. CN1C(=O)CC(C(=O)Nc2ccc(F)cc2)C(=O)c2cc(F)ccc21 (stereo unspecified)
2. O=c1[nH]c2cc(Sc3cccc4cnccc34)c([N+](=O)[O-])cc2[nH]1
3. Cc1ccc(NC(=O)Cc2ccccc2C(=O)O)cc1/C=C/c1nc(C(C)C)cs1
4. Cc1ccnc2c1nc(-c1cccnc1N)n2-c1ccc(CN)cc1
5. CC(=O)Nc1nc(CCc2ccc(CON3C(=O)c4ccccc4C3=O)cc2)cs1
6. Cc1cc(OCc2ccc(-c3ccccc3-c3nnn[nH]3)cc2)c(C(=O)O)c(C)n1
7. CC(C)(CNc1ccc(C2=NNC(=O)CC2)cc1)NCC(O)COc1ccccc1C#N (stereo unspecified)
8. O=C(O)c1ccc(Oc2ccc(Cl)cc2)cc1

Result block:
["180 to 182 °C", "> 270 °C", "181 to 183 °C", "210 to 212 °C", "225 to 226 °C", "237 °C", "126 to 128 °C", "161 to 164 °C"]
